Property: T/C; scope: individual compounds
# Tested on: P388 leukemia ip, CD2F1 mice, survival T/C
# protocolSummary: NCI In Vivo Anticancer Drug Screen. Data for tumor model P388 Leukemia (intraperitoneal) in CD2F1 (CDF1) mice
# measurementContext: endpoint: median survival time; dose: 50.0 mg/kg/injection; schedule: Q01DX005 (ip); vehicle: saline with Tween-80; higher = longer survival
Toxic doses and inconclusive results are not listed. Peptide text beside a SMILES is read from it. * marks the point of attachment. Cbz = O=C(OCc1ccccc1)*

For orientation, consider the following solved cases.
# compound, obsValue
measured = [
    ("CCOC(=O)CC(=O)c1sc(SC)c(C#N)c1N", "106 % of control"),
    ("O=C(NC(Cc1ccccc1)C(=O)NC(CO)C(=O)O)OCc1ccccc1 (stereo not drawn) (Cbz-Phe-Ser-OH; configuration not given here)", "100 % of control"),
]

In the following, a different compound is considered.
Prompt line: // query T/C value for entry "Cc1ccc(N2CCOS(=O)OCC2)cc1"
Response line: 101 % of control

###

# Test system: P388 leukemia ip, CD2F1 mice, survival T/C
# protocolSummary: NCI In Vivo Anticancer Drug Screen. Data for tumor model P388 Leukemia (intraperitoneal) in CD2F1 (CDF1) mice
# measurementContext: endpoint: median survival time; dose: 200.0 mg/kg/injection; schedule: Q01DX005 (ip); vehicle: saline with Tween-80; higher = longer survival
# Method: The antitumor activity of compounds was measured in mice bearing transplantable tumors. Survival or tumor size were measured and the results are expressed as the measurement made in the treated group (T) divided by the measurement made in the vehicle treated control group (C). The tumor model used in this assay is P388 Leukemia (intraperitoneal) in CD2F1 (CDF1) mice
Inconclusive results and toxic doses are left out.
Property: T/C; scope: individual compounds

# compound, T/C
records = [
    ("COc1nc(Nc2ccccc2SC)nc(OC)n1", "107 % of control"),
    ("S=C(NCNC(=S)c1ccncc1)c1ccncc1", "104 % of control"),
    ("CSC(C(OC(C)=O)C(OC(C)=O)C(OC(C)=O)C(COC(C)=O)OC(C)=O)n1cnc2c(=S)nc[nH]c21 (stereo not drawn)", "89 % of control"),
    ("c1ccc2c(c1)NC(c1ccc3c(c1)Sc1cc(C4Nc5ccccc5N4)ccc1O3)N2", "100 % of control"),
]

In the following, a different compound is considered.
Prompt line: Entry under review: "CCOc1ccc2c(c1)[n+](=O)c1ccc(Cl)cc1n2[O-]" . Reported T/C?
Response line: 112 % of control

###

# System: P388 leukemia ip, CD2F1 mice, survival T/C
# protocolSummary: NCI In Vivo Anticancer Drug Screen. Data for tumor model P388 Leukemia (intraperitoneal) in CD2F1 (CDF1) mice
# measurementContext: endpoint: median survival time; dose: 240.0 mg/kg/injection; schedule: Q01DX005 (ip); vehicle: saline + Tween-80 + alcohol; higher = longer survival
Toxic doses and inconclusive results are not listed.
The entries below are paired with their reported T/C.

# molecule, T/C
records = [
    ("CCCOc1cc2c(cc1C(C)c1ccc(OC)c(C)c1)OCO2 (stereo not given)", "108 % of control"),
]

Prompt line: Using the record for "C[C@H](CSC(=O)c1ccccc1)C(=O)N1c2ccccc2C[C@H]1C(=O)O" , report its T/C.
Response line: 104 % of control

Prompt line: Name the recorded T/C for "CCOC(=O)Nc1cc(=O)c([N+](=O)[O-])c(N)[nH]1" .
Response line: 100 % of control

Prompt line: Fill in the blank: the reported T/C of "CCO/C=C1/N=C(c2cc([N+](=O)[O-])cc([N+](=O)[O-])c2C)OC1=O" is ____.
Response line: 88 % of control

Prompt line: Value lookup for T/C; key = C=C(COC(C)=O)CC(CC(=C)CC(OC(C)=O)Sc1ccccc1)S(=O)(=O)c1ccccc1 (stereo not given)
Response line: 104 % of control
